For each of the molecules below, state its area under dose-response curve.
Test system: SK-N-MM (SKNMM-MYCN, doxycycline-inducible MYCN)
Measurement Notes: area under dose-response curve (CellTiter-Glo viability normalised to plate controls) (AUC (arbitrary units)); higher = more loss of viability; extreme values may be limits of the assay
Assay Conditions: MYCN induction (doxycycline): no doxycycline (MYCN not induced); time after drugging: 8 days
Numbers only.

Here is how some molecules turned out for area under dose-response curve.
CO[C@H]1C[C@@H]2CC[C@@H](C)[C@@](O)(O2)C(=O)C(=O)N2CCCC[C@H]2C(=O)O[C@H]([C@H](C)C[C@@H]2CC[C@@H](OCCO)[C@H](OC)C2)CC(=O)[C@H](C)/C=C(\C)[C@@H](O)[C@@H](OC)C(=O)[C@H](C)C[C@H](C)/C=C/C=C/C=C/1C : 21.4
CCN(CCCOc1ccc2c(Nc3cc(CC(=O)Nc4cccc(F)c4)[nH]n3)ncnc2c1)CCOP(=O)(O)O : 33.5
CN[C@@H]1C[C@H]2O[C@@](C)([C@@H]1OC)n1c3ccccc3c3c4c(c5c6ccccc6n2c5c31)C(=O)N[C@H]4O [7-HYDROXYSTAUROSPORINE] : 249
CC(=O)c1ccc2c(c1)c1cc(C(C)=O)ccc1n2CCNC(C)C : 172
COc1cc(F)ccc1-c1ncnc(Nc2cccc(CS(C)(=N)=O)c2)n1 (configuration not stated) : 131

Hi team, please reply with area under dose-response curve for each item in this list.
1. CC(=O)Nc1cccc(-n2c(=O)n(C3CC3)c(=O)c3c(Nc4ccc(I)cc4F)n(C)c(=O)c(C)c32)c1
2. CN1C(=O)[C@@]23C[C@]4([C@]56C[C@@]78SS[C@@](CO)(C(=O)N7[C@H]5Nc5ccccc56)N(C)C8=O)c5ccccc5N[C@@H]4N2C(=O)[C@]1(CO)SS3

Result:
1. 152
2. 373
